Items are presented alongside their recorded melting point.

[in] Kindly indicate its recorded melting point. Item: CSCc1cc(N)ccc1O
[out] 166 °C

[in] Kindly indicate its recorded melting point. Item: Cc1cccc(COCc2cccc(OCc3ccc4ccccc4n3)c2)c1C(=O)O
[out] 39 to 65 °C

[in] Kindly indicate its recorded melting point. Item: Cc1cc(C)cc(N(CCCC(=O)O)Cc2ccc3nc(NCCCN4CCOCC4)n(Cc4nc(C)ccc4O)c3c2)c1
[out] 121 °C

[in] Kindly indicate its recorded melting point. Item: COc1ccc2c(c1)C1(O)C(=O)c3ccccc3C1(O)O2 (stereo not given)
[out] 186 to 189 °C

[in] Kindly indicate its recorded melting point. Item: CCOC(=O)c1cc2cc(Oc3ccc(S(C)(=O)=O)cc3)cc(O)c2[nH]1
[out] 197 to 198 °C

[in] Kindly indicate its recorded melting point. Item: Cc1ccc(NC(=O)c2ccccc2CN2C(=O)C3(COc4cc5c(cc43)CCO5)c3ccccc32)c(C)c1 (stereo not given)
[out] 207 to 208 °C

[in] Kindly indicate its recorded melting point. Item: COc1cccc(OC)c1C(=O)Nc1nnc(-c2nc3ccccc3s2)s1
[out] > 260 °C

[in] Kindly indicate its recorded melting point. Item: CC(C)(C)c1cc(CCc2ccccc2NC(=O)NCC(C)(C)c2ccc(N3CCCC3)cc2)cc(C(C)(C)C)c1O
[out] 195 to 196 °C

[in] Kindly indicate its recorded melting point. Item: Nc1nc(O)c2cc(C#Cc3ccc(C(=O)O)cc3)cnc2n1
[out] > 260 °C

[in] Kindly indicate its recorded melting point. Item: CNC(=O)N(CCN)c1nc(-c2ccc(F)cc2C)c2ccc(=O)n(-c3c(F)cccc3F)c2n1
[out] 124 to 133 °C

---
[in] Kindly indicate its recorded melting point. Item: CCCCc1ccc(NC(=O)Nc2ccc(S(N)(=O)=O)cc2)cc1
[out] 243 to 245 °C

[in] Kindly indicate its recorded melting point. Item: COc1cccc(Sc2c(O)cc(-c3ccccc3)oc2=O)c1
[out] 130 to 131 °C

[in] Kindly indicate its recorded melting point. Item: NS(=O)(=O)Oc1ccccc1
[out] 81 to 85 °C
